target: Pim-3 (Homo sapiens (Human), UniProt Q86V86)
pIC50: −log10 of the molar value.
Each item that follows carries a reported pIC50.
Experimental readout: pIC50

compound="C[C@@H]1C[C@H](N)CN(c2c(NC(=O)c3ccc(F)c(-c4c(F)cc(C(C)(C)O)cc4F)n3)cnc3c2CCC3O)C1 (single isomer, unassigned) [67 (Diastereoisomer 1)]" measured="≥ 7.00"
compound="C[C@H]1CN(c2c(NC(=O)c3ccc(F)c(-c4c(F)cccc4F)n3)cnc3c2CCO3)C[C@@H](N)[C@@H]1O [Example 41]" measured="≥ 7.00"
compound="CSc1cc(F)c(-c2nc(C(=O)Nc3cnc4c(c3N3CCC[C@H](N)C3)CCC4O)ccc2F)c(F)c1 (single isomer, unassigned) [58 (Diastereoisomer 1)]" measured="≥ 7.00"

====

Record set of pIC50 for target or system Pim-3 (Homo sapiens (Human), UniProt Q86V86).
pIC50: −log10 of the molar value.
Experimental readout: pIC50

compound="COc1ccc(F)c(-c2nc(C(=O)Nc3cnc4c(c3N3C[C@H](C)C[C@H](N)C3)CCO4)ccc2F)c1F [Example 73]" experimental_readout=pIC50 measured="≥ 7.00"
compound="CC1(O)CCc2c1ncc(NC(=O)c1nc(-c3c(F)cccc3F)sc1N)c2N1CCC[C@H](N)C1 (single isomer, unassigned) [19 (Diastereoisomer 2)]" experimental_readout=pIC50 measured="≥ 7.00"
compound="COc1ccc(F)c(-c2nc(C(=O)Nc3cnc4c(c3N3CCC[C@H](N)C3)CCC4O)c(N)s2)c1F (single isomer, unassigned) [53 (Diastereoisomer 1)]" experimental_readout=pIC50 measured="≥ 7.00"
compound="C[C@@H]1C[C@H](N)CN(c2c(NC(=O)c3ccc(F)c(-c4c(F)cc(OC5CCCOC5)cc4F)n3)cnc3c2CCC3O)C1 (single isomer, unassigned) [70 (Diastereoisomer 1)]" experimental_readout=pIC50 measured="≥ 7.00"
compound="Nc1sc(-c2c(F)cccc2F)nc1C(=O)Nc1cnc2c(c1N1CCC[C@H](N)C1)CCC2O (single isomer, unassigned) [15 (Diastereoisomer 1)]" experimental_readout=pIC50 measured="≥ 7.00"
compound="Nc1sc(-c2c(F)cccc2F)nc1C(=O)Nc1cnc2c(c1N1CCC[C@H](N)C1)CCC2 [Example 14]" experimental_readout=pIC50 measured="≥ 7.00"

====

Record set of IC50 for target or system Pim-3 (Homo sapiens (Human)).
Experimental readout: IC50

compound="Nc1cc(F)c(-c2c(F)cccc2F)nc1C(=O)Nc1cnc2c(c1N1CCC[C@H](N)C1)CCC2O (single isomer, unassigned) [23 (Diastereoisomer 2)]" study_system="Pim-3 (Homo sapiens (Human))" measured="≤ 100 nM"
compound="COc1ccc(F)c(-c2nc(C(=O)Nc3cnc4c(c3N3C[C@H](C)C[C@H](N)C3)CCC4O)c(N)s2)c1F (single isomer, unassigned) [54 (Diastereoisomer 1)]" study_system="Pim-3 (Homo sapiens (Human))" measured="≤ 100 nM"
compound="C[C@@H]1C[C@H](N)CN(c2c(NC(=O)c3nc(-c4c(F)cccc4F)c(F)cc3N)cnc3c2CCC3O)C1 (single isomer, unassigned) [46 (Diastereoisomer 2)]" study_system="Pim-3 (Homo sapiens (Human))" measured="≤ 100 nM"
compound=N[C@H]1CCCN(c2c(NC(=O)c3csc(-c4c(F)cccc4F)n3)cnc3[nH]ncc23)C1 study_system="Pim-3 (Homo sapiens (Human))" measured="> 40 nM"
compound="Nc1sc(-c2c(F)cccc2F)nc1C(=O)Nc1cnc2c(c1N1CCC[C@H](N)C1)CCC2O (single isomer, unassigned) [15 (Diastereoisomer 2)]" study_system="Pim-3 (Homo sapiens (Human))" measured="≤ 100 nM"
compound=Nc1cc(F)c(-c2c(F)cccc2F)nc1C(=O)Nc1cnc2c(c1N1CCC[C@H](N)C1)CCO2 study_system="Pim-3 (Homo sapiens (Human))" measured="≤ 100 nM"

Cited source: patent US10265307B2
